This collection of values is drawn from paper PMC9206510.

# assayProtocol: Single oral dose pharmacokinetics in ferret plasma
# conditionInfo: in vivo, 15 mg/kg
measureName: Cmax (µM)
Answers are plain numbers, in µM.

Return the recorded Cmax value; entry: "O=c1ccn([C@@H]2O[C@](F)(CO)[C@@H](O)[C@H]2O)c(=O)[nH]1"
34.8
